ASSAY_SUMMARY: In vitro cytotoxicity by MTT assay, HEK 293
Format: cell-based, human
SETUP_CONDITIONS: human, HEK 293 cells, 0.41 μM, read-out: % cytotoxicity (100 − % cell survival) of HEK 293 cell line
Method: The cancer cell line cultures of HEK 293 ([…]), BT474 (breast cancer cell line) and NCI-H226 (lung cancer) were obtained from Pasteur Institute of India, Coonoor, India, and were cultured in RPMI-1640 and 10 % heat-[…] New born calf serum with antibiotics [penicillin ([…]), streptomycin (100 μg/mL) and amphotericin B (25 μg/mL)]. The cells were maintained at 37 °C in a humidified atmosphere with 5 % CO2 and were subcultured twice a week. […]
Label true when cytotoxicity at 72 h, 0.41 µM is at or above 40%; anything below gets false.

Observe how each entry below is paired with its result.
molecule=CC(=O)Nc1ccc(S(=O)(=O)Nc2nnc(S(=O)(=O)NC(=O)c3ccccc3N)s2)cc1 answer_label=true
molecule=O=C(NS(=O)(=O)c1nnc(N=Cc2ccco2)s1)c1ccccc1 answer_label=false

Input line: I'd appreciate it if you could say whether Nc1ccc(S(=O)(=O)Nc2nnc(S(=O)(=O)NC(=O)c3ccc(Cl)cc3)s2)cc1 has cytotoxicity at 72 h, 0.41 µM at least equal to 40%.
Output line: false

Input line: State whether the measured cytotoxicity at 72 h, 0.41 µM reaches 40%, counting equality as reaching it, for CC(=O)Nc1ccc(S(=O)(=O)Nc2nnc(S(=O)(=O)NC(=O)c3ccc(N)cc3)s2)cc1
Output line: false

Input line: Item Nc1ccc(S(=O)(=O)Nc2nnc(S(=O)(=O)NC(=O)c3ccccc3N)s2)cc1 with cytotoxicity at 72 h, 0.41 µM of 40% or above?
Output line: true

Input line: Identify whether the reported cytotoxicity at 72 h, 0.41 µM of the following molecule is 40% or greater: O=C(NS(=O)(=O)c1nnc(N=Cc2ccccc2)s1)c1ccccc1
Output line: true

Input line: Would you say O=C(NS(=O)(=O)c1nnc(N=Cc2ccc(O)cc2)s1)c1ccccc1 shows cytotoxicity at 72 h, 0.41 µM at minimum 40%?
Output line: false

Input line: Could you tell me if the measured cytotoxicity at 72 h, 0.41 µM of NS(=O)(=O)c1ccc(S(=O)(=O)Nc2cccc3c(Cl)c[nH]c23)cc1 [ISL, indisulam, reference compound] reaches 40% or more?
Output line: true

From: paper PMC3973950
